Reported IC50 values for the following compounds.
Tested on: LTB4 production in murine blood (LTA4H)
measurement description: LTB4 production by calcium ionophore-stimulated murine blood for LTA4H inhibitor activity
Format: cell-based, CD-1 mice
condition context: Mus musculus; murine blood diluted 1 in 15, A23187 stimulated; single determination or average; mark after value = form tested: ′ free base, ″ hydrochloride, ^ formate; read-out: IC50
Method: Assay 2: LTB4 Production by Calcium Ionophore-Stimulated Murine Blood for LTA4H Inhibitor Activity CD-1 mice were sacrificed, and blood was collected in heparin-containing syringes by cardiac puncture. […] The reaction was terminated by centrifugation (833×g, 10 min at 4° C.), and supernatants were analyzed for LTB4 by a commercially available enzyme-linked immunoassay (Cayman Chemical Co.) according to the manufacturer's instructions. […]
Structures can show the parent of a compound that is named as a salt.
Quick note: unit goes after the number.

Below, each entry is followed by its recorded IC50 result.
compound: NC(=O)N1CCC(N(Cc2coc3cc(Oc4nc5ncccc5s4)ccc23)C2CC2)CC1
reported: 68 nM

compound: O=C(C1CCN(Cc2c[nH]c3cc(Oc4nc5ccccc5s4)ccc23)CC1)N1CCCC1
reported: 114 nM

compound: OC[C@@H]1CCCN1Cc1coc2cc(Oc3nc4ccccc4s3)ccc12
reported: 160 nM

compound: CC(=O)N1[C@@H]2CC[C@H]1C[C@@H](NCc1coc3cc(Oc4nc5ncccc5s4)ccc13)C2
reported: 100 nM

compound: CS(=O)(=O)N1CCN(Cc2coc3cc(Oc4nc5ncccc5s4)ccc23)CC1
reported: 80 nM

Input: Requested field: IC50. Item: OCC1CCN(Cc2c[nH]c3cc(Oc4nc5ccccc5s4)ccc23)CC1
Output: 79 nM

Input: Look at this compound and give its reported IC50. c1cnc2nc(Oc3ccc4c(CN5CCC6CCCCC6C5)coc4c3)sc2c1 (stereo not drawn) [Example 266, formate]
Output: 100 nM

Input: Look up IC50: NC(=O)N[C@@H]1C[C@H]2CC[C@@H](C1)N2Cc1coc2cc(Oc3nc4ncccc4s3)ccc12
Output: 160 nM

Input: Entry CC(=O)N1C[C@@H]2CC[C@H]1CN2Cc1cc2ncc(Oc3nc4ncccc4s3)cc2o1 [Example 339, formate] : reported IC50 = ?
Output: 70 nM

----------
Test system: LTB4 production in murine blood (LTA4H)
measurement description: LTB4 production by calcium ionophore-stimulated murine blood for LTA4H inhibitor activity
Format: cell-based, CD-1 mice
condition context: Mus musculus; murine blood diluted 1 in 15, A23187 stimulated; single determination or average; mark after value = form tested: ′ free base, ″ hydrochloride, ^ formate; read-out: IC50
Structures can show the parent of a compound that is named as a salt.
measurement label: pIC50
The read-out pIC50 is expressed as -log10 of concentration in moles per litre.

Some solved cases for reference:
compound: CN(Cc1ccncc1)Cc1coc2cc(Oc3nc4ncccc4s3)ccc12
pIC50: 6.96
//
compound: F[C@@H]1CCN(Cc2coc3cc(Oc4nc5ncccc5s4)ccc23)C1
pIC50: 7.03
//
compound: CC(=O)N[C@H]1C[C@H]2CC[C@@H](C1)N2Cc1cc2ccc(Oc3nc4ccccc4s3)cc2[nH]1
pIC50: 7.12

Query compound follows.
Input: So what pIC50 did CC(=O)NC1CCN(Cc2coc3cc(Oc4nc5ncc(F)cc5s4)ccc23)CC1 [Example 255, formate] get with LTB4 production in murine blood (LTA4H)?
Output: 7.14
